# normalized growth values compiled below
# experiment: chemical genetic growth profiling, strain panel (AID 1159580);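 further: tested at 20 µM; growth read once vehicle control cultures reached saturation at 30 °C; 1 = growth at the plate median or of vehicle wells; lower values mean less growth of the strain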
# stated_conditions: S. cerevisiae deletion strains, growth OD, locus YCL016C, strain dcc1, active compounds read low
Out of some 5,500 compounds screened, about 2,000 (36%) were called active. Not shown: some 18% with an inconclusive outcome. This is one part of the list.
// return a plain number; no unit text

Known results for molecules:
molecule: CNC[C@@H](O)c1ccc(O)c(O)c1
normalized growth: 1.02
--
molecule: CC(C)NCC(O)c1ccc(O)c(O)c1 (stereo not drawn)
normalized growth: 0.951
--
molecule: NCC(O)c1ccc(O)cc1 (stereo not drawn)
normalized growth: 1.03
--
molecule: Cc1occc(=O)c1O
normalized growth: 0.978
--
molecule: O=C1CCCC2C3CC(CN12)[C@@H]1CCCCN1C3 (stereo partly drawn)
normalized growth: 0.993
--
molecule: NC[C@H](O)c1ccc(O)c(O)c1
normalized growth: 1.02

Form field: reported normalized growth of `CC(C)(C)NC[C@@H](O)COc1nsnc1N1CCOCC1` 1.01

Now give it for `C1CNCCN1` too. 1.01

* * *

# experiment: chemical genetic growth profiling, strain panel (AID 1159580)
# stated_conditions: S. cerevisiae deletion strains, growth OD, locus YDL134C, strain PPH21
In all, about 5,500 compounds went through this assay and about 2,000 (36%) were called active. Not shown: some 18% with an inconclusive outcome. Cut-off read from the data, not from the text of the source: active = normalized growth mostly below about 0.91 (no sharp cut-off); inconclusive = no clear call, values can overlap the other calls; inactive = mostly above about 0.92. The list shows a part of the results.
Hello, when you answer, please use one of the following outcomes: active, inactive

Previously resolved entries follow.
compound: C1CNCCN1
class_assignment: inactive
--
compound: CN(/N=C\c1ccccc1)c1ncc(C(F)(F)F)cc1Cl
class_assignment: inactive
--
compound: C1CCN2CC3CC(CN4CCCCC34)C2C1 (centres undefined)
class_assignment: inactive
--
compound: CC/C(=C(\c1ccccc1)c1ccc(OCCN(C)C)cc1)c1ccccc1
class_assignment: active
--
compound: CSCCC(NC=O)C(=O)NC(C)C(=O)O (centres undefined)
class_assignment: inactive
--
compound: CC1(C)C(=O)C=C[C@@]2(C)C1=C(O)C(=O)[C@]1(C)C2CC[C@@]2(C)[C@H](c3ccoc3)C[C@H]3O[C@]321 (some centres undefined)
class_assignment: active
--
compound: CC1CCN(C(=O)CC#N)CC1
class_assignment: inactive
--
compound: CCN(CC)CCOc1ccc2c(c1)C(=O)c1cc(OCCN(CC)CC)ccc1-2
class_assignment: inactive
--
compound: COc1cc(C(=O)NCc2ccc(OCCN(C)C)cc2)cc(OC)c1OC
class_assignment: inactive
--
compound: COc1ccc(-c2c(C)nc3ccc(Cl)cc3c2-c2ccccc2)cc1OC
class_assignment: active

Hello, I am checking results. What call was entered for `O=C(NNC(=S)Nc1ccc(F)cc1)c1ccccc1Cl` ? inactive

How about this compound: `Clc1cc(Cl)c(Cl)c(-n2cccc2)c1Cl` active

Same again, this time with `C[n+]1cccc(C(=O)[O-])c1` inactive

Query `Nc1ncnc2c1ncn2[C@@H]1O[C@H](CO)[C@@H](O)[C@H]1O` next inactive

* * *

Measured normalized growth, listed per entry.
# experiment: chemical genetic growth profiling, strain panel (AID 1159580)
# stated_conditions: S. cerevisiae deletion strains, growth OD, locus YNR052C, strain pop2, active compounds read low
The campaign covered roughly 5,500 compounds. About 2,000 (36%) were called active. About 18% were inconclusive and are not listed. Some of the results follow.
Lab note: jot down the number only; don't add units.

compound: Nc1ncnc2c1ncn2[C@@H]1O[C@H](CO)[C@@H](O)[C@H]1O
normalized growth: 0.977
//
compound: CC(=O)O[C@H]1C[C@@H](OC(C)=O)C(C)(C)C2C[C@@H](OC(C)=O)[C@@]3(C)C4=CC(=O)O[C@@H](c5ccoc5)[C@]4(C)CCC3[C@]21C (some centres undefined)
normalized growth: 0.995
//
compound: Nc1nc2c(ncn2C2C[C@H](O)[C@@H](CO)O2)c(=O)[nH]1 (some centres undefined)
normalized growth: 0.137

Please turn your attention to the following entry.
So what does the record say about normalized growth for Nc1ncnc2c1ncn2C1C[C@H](O)[C@@H](CO)O1 (some centres undefined) ? 0.985

* * *

# experiment: chemical genetic growth profiling, strain panel (AID 1159580)
# stated_conditions: S. cerevisiae deletion strains, growth OD, locus YPL106C, strain sse1
In all, about 5,500 compounds went through this assay and about 2,000 (36%) were called active. Inconclusive results (about 18%) are left out. Cut-off read from the data, not from the text of the source: active = normalized growth mostly below about 0.91 (no sharp cut-off); inconclusive = no clear call, values can overlap the other calls; inactive = mostly above about 0.92. The list shows a part of the results.
Outcome (select one): active, inactive

For orientation, consider the following solved cases.
compound: COc1cc(OC)c2c(=O)c(-c3ccccc3)c(C)oc2c1OC
class_assignment: inactive
--
compound: CC(=O)c1c(O)c(C)c(O)c2c1OC1=CC(=O)C(C(C)=O)C(=O)C12C (stereo unspecified)
class_assignment: inactive
--
compound: CC(=O)Oc1ccc(Cl)c2cccnc12
class_assignment: active
--
compound: CO[C@H]1/C=C/O[C@@]2(C)Oc3c(C)c(O)c4c(O)c(c5c(nc6cc(C)ccn65)c4c3C2=O)NC(=O)/C(C)=C\C=C\[C@H](C)[C@H](O)[C@@H](C)C(O)[C@@H](C)[C@H](OC(C)=O)[C@@H]1C (stereo partly specified)
class_assignment: inactive
--
compound: Nc1ccc(S(=O)(=O)Nc2ccccn2)cc1
class_assignment: inactive

For `Cc1c(Nc2ncccc2C(=O)O)cccc1C(F)(F)F` , what call appears in the results of this test? inactive

Can you handle `C[n+]1cccc(C(=O)[O-])c1` next? inactive

Next up: `C=C(CC)C(=O)c1ccc(OCC(=O)O)c(Cl)c1Cl` inactive

Try the compound `Oc1c(I)cc(I)c2cccnc12` active

Another compound: `O=C(O)c1ccccc1Nc1cccc(C(F)(F)F)c1` inactive

* * *

# experiment: chemical genetic growth profiling, strain panel (AID 1159580);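 further: tested at 20 µM; growth read once vehicle control cultures reached saturation at 30 °C; 1 = growth at the plate median or of vehicle wells; lower values mean less growth of the strain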
# stated_conditions: S. cerevisiae deletion strains, growth OD, locus YDR162C, strain NBP2
Among all 5,500 compounds or so, about 2,000 (36%) were called active. Inconclusive results (about 18%) are left out. No stated cut-off is given here; in the data, active means normalized growth mostly below about 0.91 (no sharp cut-off); inconclusive means no clear call, values can overlap the other calls; inactive means mostly above about 0.92. This is one part of the list.
Result category, one only: yes (1) = active, no (0) = inactive

compound: CCN(CC)CCNC(=O)c1cc(S(C)(=O)=O)ccc1OC
class_assignment: no (0)
--
compound: COc1cc(OC)c2c(=O)c(-c3ccccc3)c(C)oc2c1OC
class_assignment: no (0)
--
compound: CC1(C)C(=O)C=C[C@@]2(C)C1=C(O)C(=O)[C@]1(C)C2CC[C@@]2(C)[C@H](c3ccoc3)C[C@H]3O[C@]321 (some centres undefined)
class_assignment: yes (1)
--
compound: CC(C)N(C(=O)SCC(Cl)=C(Cl)Cl)C(C)C
class_assignment: no (0)
--
compound: Cc1ccc2cc3c(ccc4ccccc43)c3c2c1CC3
class_assignment: yes (1)

Could you kindly confirm the outcome this assay logged for C=CC(C1=CC(=O)C(OC)=CC1=O)c1ccc(O)cc1 (centres undefined) ? no (0)

Now give it for O=c1[nH]c(=O)n(C2C[C@@H](O)[C@@H](CO)O2)cc1F (some centres undefined) too. no (0)

* * *

# experiment: chemical genetic growth profiling, strain panel (AID 1159580);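 further: tested at 20 µM; growth read once vehicle control cultures reached saturation at 30 °C; 1 = growth at the plate median or of vehicle wells; lower values mean less growth of the strain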
# stated_conditions: S. cerevisiae deletion strains, growth OD, strain TSCII, active compounds read low
The campaign covered roughly 5,500 compounds. About 2,000 (36%) were called active. Inconclusive results (about 18%) are left out. Some of the results follow.
Measured normalized growth of individual entries
# answer = number (no unit)

Study these solved cases before continuing.
compound: O=C1CSC(c2cccnc2)N1c1ccc(Cl)cc1Cl (stereo unspecified)
normalized growth: 0.989

compound: O=C(NCCSCc1cccc(C(F)(F)F)c1)Nc1cccc(C(F)(F)F)c1
normalized growth: 0.995

Suppose we examine the compound `O=C(NCCSCc1cccc(C(F)(F)F)c1)c1ccc(Cl)cc1` ; what normalized growth value has been reported? 0.959

Ok, now `Fc1cccc(Cl)c1CSc1nncn1-c1ccc(OCc2ccccc2)cc1` 0.986

What about `O=C(NCCSCc1ccco1)Nc1cc(Cl)cc(Cl)c1` ? 0.954

Proceed to `Cc1nn(Cc2ccc(C(=O)Sc3ccc(C(F)(F)F)cn3)o2)c(C)c1Br` 0.961

* * *

normalized growth reference
# experiment: chemical genetic growth profiling, strain panel (AID 1159580);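 further: tested at 20 µM; growth read once vehicle control cultures reached saturation at 30 °C; 1 = growth at the plate median or of vehicle wells; lower values mean less growth of the strain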
# stated_conditions: S. cerevisiae deletion strains, growth OD, locus YMR307W, strain GAS1, active compounds read low
Among all 5,500 compounds or so, about 2,000 (36%) were called active. Another 18% or so got no clear call; they are omitted. The list shows a part of the results.
Reply: number alone, nothing else.

compound: Cc1[nH]ncc1-c1ccccc1
normalized growth: 0.933
//
compound: CSCCC(NC=O)C(=O)NC(C)C(=O)O (centres undefined)
normalized growth: 0.872
//
compound: COc1c2c(cc3c1OCO3)CCN(C)C2
normalized growth: 1.02

Param item = `NC[C@H](O)c1ccc(O)c(O)c1` ; retrieve measured normalized growth. 0.979
